Experiment: Amniotic fluid drug concentration in mouse pregnancy model (HPLC-MSMS)
Format: in vivo, C57BL/6J mice
Settings: female, C57BL/6J, mouse, amniotic fluid, oral, pregnant mice; CAB 1.5 mg/kg (3×) oral gavage once daily GD11.5-GD15.5 with TDF 50 mg/kg + FTC 33.3 mg/kg; mean (SD), n=2
experimental.readout: concentration at 1 h (ng/mL)

- chem.smiles: "C[C@H]1CO[C@@H]2Cn3cc(C(=O)NCc4ccc(F)cc4F)c(=O)c(O)c3C(=O)N12"
  units.of.measure: "ng/mL"
  value.reported: 59.9

###

Experiment: Maternal plasma drug concentration in mouse pregnancy model (HPLC-MSMS)
Type: in vivo, C57BL/6J mice
Settings: female, C57BL/6J, mouse, plasma; pregnant mice; CAB 5 mg/kg (10×) oral gavage once daily GD11.5-GD15.5 with TDF 50 mg/kg + FTC 33.3 mg/kg; mean (SD), n=2
experimental.readout: Cmax at 1 h (ng/mL)

- molecule: "C[C@H]1CO[C@@H]2Cn3cc(C(=O)NCc4ccc(F)cc4F)c(=O)c(O)c3C(=O)N12 [CAB, cabotegravir]"
  units.of.measure: "ng/mL"
  value.reported: 3580

###

Test: Amniotic fluid drug concentration in mouse pregnancy model (HPLC-MSMS)
Assay type: in vivo, C57BL/6J mice
Conditions: female, C57BL/6J, mouse, amniotic fluid / maternal plasma, oral, pregnant mice; BIC 8.3 mg/kg (10×) oral gavage once daily GD11.5-GD15.5 with TDF 50 mg/kg + FTC 33.3 mg/kg; mean (SD), n=2; read-out: Amniotic: Maternal Plasma Ratio 1 h
experimental.readout: Kp at 1 h

- chem.smiles: "O=C(NCc1c(F)cc(F)cc1F)c1cn2c(c(O)c1=O)C(=O)N1[C@H]3CC[C@H](C3)O[C@@H]1C2"
  value.reported: 0.036

###

Assay: Amniotic fluid drug concentration in mouse pregnancy model (HPLC-MSMS)
Format: in vivo, C57BL/6J mice
Conditions: female, C57BL/6J, mouse, amniotic fluid / maternal plasma, oral, pregnant mice; CAB 5 mg/kg (10×) oral gavage once daily GD11.5-GD15.5 with TDF 50 mg/kg + FTC 33.3 mg/kg; mean (SD), n=2; read-out: Amniotic: Maternal Plasma Ratio 1 h
experimental.readout: Kp at 1 h

- compound: "C[C@H]1CO[C@@H]2Cn3cc(C(=O)NCc4ccc(F)cc4F)c(=O)c(O)c3C(=O)N12 [CAB, cabotegravir]"
  experimental.readout: "Kp at 1 h"
  value.reported: 0.034

###

Experiment: Amniotic fluid drug concentration in mouse pregnancy model (HPLC-MSMS)
Assay type: in vivo, C57BL/6J mice
Conditions: female, C57BL/6J, mouse, amniotic fluid / maternal plasma, oral, pregnant mice; 20× BIC dose; 1 h after dosing; read-out: Ratio of drug in the amniotic fluid to that in maternal plasma

- molecule: "O=C(NCc1c(F)cc(F)cc1F)c1cn2c(c(O)c1=O)C(=O)N1[C@H]3CC[C@H](C3)O[C@@H]1C2 [BIC, bictegravir]"
  Kp at 1 h: 0.112

###

Assay: Maternal plasma drug concentration in mouse pregnancy model (HPLC-MSMS)
Assay type: in vivo, C57BL/6J mice
Conditions: female, C57BL/6J, mouse, plasma, oral, pregnant mice; CAB 1.5 mg/kg (3×) oral gavage once daily GD11.5-GD15.5 with TDF 50 mg/kg + FTC 33.3 mg/kg; mean (SD), n=2; read-out: Plasma Concentration 24 h (Cmin)

- chem.smiles: "C[C@H]1CO[C@@H]2Cn3cc(C(=O)NCc4ccc(F)cc4F)c(=O)c(O)c3C(=O)N12"
  concentration at 24 h, ng/mL: 480
